Molecular target: T1, full length cynomolgus APLNR (cynomolgus monkey (Macaca fascicularis), UniProt O97666 1-380 (rhesus entry))
T1 construct: Stably expressed on HEK293/CRE-luc/MfAPLNR cells; also called MfAPLNR; mfAPLNR
T1 sequence: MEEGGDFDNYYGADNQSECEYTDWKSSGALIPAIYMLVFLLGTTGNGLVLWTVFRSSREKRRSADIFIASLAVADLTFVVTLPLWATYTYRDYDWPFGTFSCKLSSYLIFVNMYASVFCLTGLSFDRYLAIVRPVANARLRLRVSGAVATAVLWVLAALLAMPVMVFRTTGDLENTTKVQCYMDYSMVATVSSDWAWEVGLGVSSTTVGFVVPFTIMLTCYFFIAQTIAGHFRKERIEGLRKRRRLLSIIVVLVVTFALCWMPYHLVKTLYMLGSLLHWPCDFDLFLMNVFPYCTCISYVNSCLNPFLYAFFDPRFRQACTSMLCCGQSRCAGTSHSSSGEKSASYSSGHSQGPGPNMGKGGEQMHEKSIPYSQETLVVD
Assay: FACS, 10 µg/mL antibody, HEK293/CRE-luc/MfAPLNR cells
Quantity name: Binding Ratio of Geom. Mean to Unstained Cells (fold)

[
  {
    "Binder": "H1M9207N (antibody, V domains shown, Human variable domains, mouse IgG1 Fc (H1M prefix)) VH: EVQLVESGGGLAQPGGSLRLSCAASGFTFSNYWMSWVRQAPGKGLEWVANIKQDGSEKYYLESVKGRFTISRDNAKNLLYLQMNSLRAEDTAVFYCARPGLLRFLEPGRRYYSGMNVWGQGTTVTVSS VL: DIQLTQSPSFLSASVGDRVTITCWASQGIRSYLAWYQQKPGKAPKLLIYAASTLQSGVPSRFSGSGSGTEFTLTISSLQPEDFATYYCQQFNSYPWTFGQGTKVEIK",
    "Units of measure": "fold",
    "Measured number": 1310
  }
]

Origin of measurements: patent US20190048074A1
